System: K-562 leukemia
test-summary: NCI-60 one-dose screen, 48 h (100 = growth as untreated, 0 = no growth, -100 = all killed)
protocol-conditions: 10 µM
Protocol: Cells are grown in 96 well plates and exposed to the test compound for 48 hours. Compounds are tested at a single concentration, which is 10^-5 M for most compounds. The reported endpoint is percent growth (GI% or GIPRCNT), where numbers from 0 - 100% represent growth inhibition, and numbers from -100% - 0 represent cell death. For example, a value of 40 represents 60% growth inhibition. A value of 0 means no net growth occurred over the course of the experiment. […]
Compounds without any hit were thinned out: in the full panel of roughly 83,000, 20% have a hit.
For each record, write down the corresponding growth.
Report as a plain number; the unit % is understood.

Request: Tell me the measured growth of Cc1ccc([N+](=O)[O-])c(C(=O)Nc2ccc(-c3ccc4c(c3)NC(=O)/C4=C\c3ccc[nH]3)cc2)c1 , please.
Response: 28

Request: Tell me the measured growth of Cc1noc2c(Cc3ccccc3)nn(CC(=O)N/N=C/c3ccc(F)cc3)c(=O)c12 , please.
Response: 96.7

Request: Tell me the measured growth of COc1ccc(CN2[C@@H](C(=O)NCc3ccc(C(=O)NO)cc3)Cc3c([nH]c4ccccc34)[C@@H]2C2CC2)cc1 , please.
Response: 6.95

Request: Tell me the measured growth of O=C(NCCCCCCCCCC[P+](c1ccccc1)(c1ccccc1)c1ccccc1)c1ccc(-n2nc(-c3ccccc3O)nc2-c2ccccc2O)cc1 , please.
Response: 6.35

Request: Tell me the measured growth of COc1cccc(COc2ccc(/C=C3\Oc4cc(O)ccc4C3=O)cc2)c1 , please.
Response: 49.4

Request: Tell me the measured growth of O=C1Nc2ccc(Cl)cc2/C1=C/c1cccc(OCc2ccccc2)c1 , please.
Response: 10.3

Request: Tell me the measured growth of Clc1ccc(/C=N/Nc2ncnc3sc4c(c23)CCN(Cc2ccccc2)C4)cc1 , please.
Response: 1.43

Request: Tell me the measured growth of CN1CCc2c(sc3ncnc(N/N=C/c4cn(-c5ccccc5)nc4-c4ccc(Cl)cc4)c23)C1 , please.
Response: 9.51

Request: Tell me the measured growth of COc1ccc([C@H]2C(C(=O)c3ccc(Cl)cc3)C3(N[C@@H]2c2ccccc2)C(=O)Nc2ccc(Br)cc23)cc1 (stereo partly drawn) , please.
Response: 5.88

Request: Tell me the measured growth of CN(C)c1ccc(/C=C/C(=O)c2ccc(NC(=O)CN3C(=O)NC(C)(c4ccccc4)C3=O)cc2)cc1 (stereo not drawn) , please.
Response: 27.9

Request: Tell me the measured growth of COc1ccc(-c2cc(-c3cc(C(=O)c4ccccc4)n4ccc(C)cc34)nc(N)c2C#N)cc1 , please.
Response: 88.3

Request: Tell me the measured growth of CCOC(=O)c1sc(N/N=C(\C)c2ccc3c(c2)Nc2ccccc2S3)nc1C , please.
Response: 1.72

Request: Tell me the measured growth of N#Cc1c(Cl)nc(SCc2ccc(F)cc2)nc1-c1ccc(F)cc1 , please.
Response: 69.8

Request: Tell me the measured growth of O=C1NC(=NC23CC4CC(CC(C4)C2)C3)N/C1=C\c1ccc2ncoc2c1 , please.
Response: 12.1

Request: Tell me the measured growth of OCCCNc1oc(-c2ccccc2)nc1[P+](c1ccccc1)(c1ccccc1)c1ccccc1 , please.
Response: 11.1

Request: Tell me the measured growth of COc1ccc([C@H]2C(C(=O)c3ccc(Cl)cc3)C3(N[C@@H]2c2ccccc2)C(=O)Nc2ccc(Cl)cc23)cc1 (stereo partly drawn) , please.
Response: 3.72

Request: Tell me the measured growth of COc1ccc(-c2cc(-c3cc(C(=O)c4ccc(Br)cc4)n4ccc(C)cc34)nc(N)c2C#N)cc1 , please.
Response: 92.6

Request: Tell me the measured growth of C/C(=C\CSc1ccccc1C(=O)O)CCCC(C)CCCC(C)CCCC(C)C (stereo not drawn) , please.
Response: 36.2
